- study-system: rat GHS-R (GHS receptor) expressed on CHO-GHSR62 cells (rat, UniProt O08725 1-364)
- Sequence (O08725 whole entry): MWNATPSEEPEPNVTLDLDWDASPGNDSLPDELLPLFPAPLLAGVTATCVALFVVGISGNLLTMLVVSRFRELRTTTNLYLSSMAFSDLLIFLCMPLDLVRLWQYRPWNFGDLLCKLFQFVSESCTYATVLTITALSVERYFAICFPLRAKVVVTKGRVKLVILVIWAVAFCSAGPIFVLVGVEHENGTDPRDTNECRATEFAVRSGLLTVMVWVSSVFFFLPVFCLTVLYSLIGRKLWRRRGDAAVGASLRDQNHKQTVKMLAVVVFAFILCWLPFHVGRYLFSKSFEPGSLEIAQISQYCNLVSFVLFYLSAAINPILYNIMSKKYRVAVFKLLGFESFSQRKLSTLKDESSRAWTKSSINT
- test-description: cell-based or functional assay
Ends that are not written are not given here. * marks the point of attachment. Palmitoyl = CCCCCCCCCCCCCCCC(=O)*; Lauroyl = CCCCCCCCCCCC(=O)*; Decanoyl = CCCCCCCCCC(=O)*; Hexanoyl = CCCCCC(=O)*; Butyryl = CCCC(=O)*
readout-label: Ca-releasing activity EC50 (nM)

{"binder": "GSSFLSPEHQKAQQRKESKKPPAKLQPR [[Ser^3]-rat Ghrelin]", "unit-abbrev": "nM", "measured": 3500}

a = GSS(Butyryl)FLSPEHQKAQQRKESKKPPAKLQPR [[Ser^3(Butyryl)]-rGhrelin]
b = GSS(Decanoyl)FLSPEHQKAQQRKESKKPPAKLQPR [[Ser^3(Decanoyl)]-rGhrelin]
Exercise: Param metric = Ca-releasing activity EC50; output whichever of a , b has the minimum value. State your choice using its label.
Key: b
(b: 1.7 nM, a: 280 nM)

1 = GSS(Palmitoyl)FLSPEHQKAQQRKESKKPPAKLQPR [[Ser^3(Palmitoyl)]-rGhrelin]
2 = GSS(Lauroyl)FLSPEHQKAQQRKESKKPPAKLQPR [[Ser^3(Lauroyl)]-rGhrelin]
Exercise: Returns: the argument ( 1 or 2 ) having the larger Ca-releasing activity EC50. Mark your answer with the label of the selected entry.
Key: 1

A = GSS(Ac)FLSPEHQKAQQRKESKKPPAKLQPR [[Ser^3(Acetyl)]-rGhrelin]
B = GSS(Hexanoyl)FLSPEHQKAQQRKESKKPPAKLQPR [[Ser^3(Hexanoyl)]-rGhrelin]
Exercise: Problem: Given the entries A and B , determine which has the lower reported Ca-releasing activity EC50. Select an item and report its label.
Key: B

Reference source: patent US20090170763A1
